TARGET: T1, KDR (1-3) (UniProt P35968 20-327, limits assumed)
T1 construct: domain: KDR (1-3); Soluble KDR (1-3) at 1 ug/ml, captured on the plate by anti-KDR monoclonal antibody MAKD5; also called KDR (1-3) monomer
T1 sequence (P35968 20-327 limits assumed): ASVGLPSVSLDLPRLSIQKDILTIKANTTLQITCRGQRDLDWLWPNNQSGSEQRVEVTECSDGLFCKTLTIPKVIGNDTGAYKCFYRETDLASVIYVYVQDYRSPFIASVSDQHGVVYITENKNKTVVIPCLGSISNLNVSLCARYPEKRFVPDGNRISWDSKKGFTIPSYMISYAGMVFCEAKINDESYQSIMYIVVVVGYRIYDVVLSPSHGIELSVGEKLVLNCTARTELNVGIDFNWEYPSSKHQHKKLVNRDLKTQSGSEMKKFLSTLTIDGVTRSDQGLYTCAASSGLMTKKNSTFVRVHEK
EXPERIMENT NOTES: competition ELISA, biotinylated native VEGF (8-109) as tracer, KDR (1-3) captured by mAb MAKD5
Measured Relative Binding Affinity values are reported for all entries that follow.

Here is how some binders turned out for Relative Binding Affinity.
LK-VRB-1s* (ligand) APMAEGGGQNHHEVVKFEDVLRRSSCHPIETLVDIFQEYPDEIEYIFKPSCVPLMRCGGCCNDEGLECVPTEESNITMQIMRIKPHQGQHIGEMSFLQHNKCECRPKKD = 1 fold of native VEGF (8-109)
LK-VRB-4s (ligand) APMAEGGGQNHHEVVKIEDVFERSICHPIETLVDIFQEYPDEIEYIFKPSCVPLMRCGGCCNDEGLECVPTEESNITMQIMRIKPHQGQHIGEMSFLQHNKCECRPKKD = 1 fold of native VEGF (8-109)
LK-VRB-23s (ligand) APMAEGGGQNHHEVVKFEDVLRRSSCHPIETLVDIFQEYPDEIEYIFKPSCVPLMRCGGCCNDEGRECVPTEESNITMQIMRIKPHQGQHIGEMSFLQHNKCECRPKKD = 11 fold of native VEGF (8-109)

Next binder, please.
Just so you know, measured Relative Binding Affinity for LK-VRB-21s (ligand) APMAEGGGQNHHEVVKFEDVLRRSSCHPIETLVDIFQEYPDEIEYIFKPSCVPLMRCGGCCNSEGLECVPTEESNITMQIMRIKPHQGQHIGEMSFLQHNKCECRPKKD came out at 3 fold of native VEGF (8-109)
